In this section, each of the molecules is paired with its reported hERG current change (%, negative = inhibition) at 10uM.
- ASSAY_SYSTEM: human ether-à-go-go-related gene (hERG) potassium channel (human)
- EXPERIMENT_NOTES: primary screen, population patch clamp on CHO cells stably expressing hERG; higher = less effect of the substance
Among all 310,000 compounds or so, about 14,000 (4.5%) showed an effect of 50% or more. Effects have a minus sign here. Many of the other results were omitted from the sample, so strong results are more common in it than they were.
# number only, unit % dropped from output

## Input I have this molecule here, COc1ccccc1CNC(=O)C1CCC(=O)N(CCCc2ccccc2)C1 (stereo not drawn) , and I need its recorded hERG current change (%, negative = inhibition) at 10uM.
## Output -9.31

## Input I have this molecule here, OC(COc1cccc(OCC(O)CN2CCCC2)c1)CN1CCCC1 (stereo not drawn) , and I need its recorded hERG current change (%, negative = inhibition) at 10uM.
## Output -2.86

## Input I have this molecule here, Cc1ccccc1OCCCN1CCOCC1 , and I need its recorded hERG current change (%, negative = inhibition) at 10uM.
## Output 9.44

## Input I have this molecule here, CCOc1ccc(NCc2nc3ccccc3n2CCOc2ccccc2)cc1 , and I need its recorded hERG current change (%, negative = inhibition) at 10uM.
## Output -11.6

## Input I have this molecule here, Cl.OC(COc1cccc(OCC(O)CN2CCOCC2)c1)CN1CCOCC1 (stereo not drawn) , and I need its recorded hERG current change (%, negative = inhibition) at 10uM.
## Output 7.41

## Input I have this molecule here, COc1ccc(Cl)cc1NC(=S)NCc1cccnc1 , and I need its recorded hERG current change (%, negative = inhibition) at 10uM.
## Output -15.3

## Input I have this molecule here, O=[N+]([O-])c1cc2c(cc1[N+](=O)[O-])OCCOCCOCCOCCO2 , and I need its recorded hERG current change (%, negative = inhibition) at 10uM.
## Output -59.3

## Input I have this molecule here, CCN1CCc2nc(N)oc2CC1.Cl , and I need its recorded hERG current change (%, negative = inhibition) at 10uM.
## Output 1.67

* * *

In this section, each of the molecules is paired with its reported hERG current change (%, negative = inhibition) at 10uM.
- ASSAY_SYSTEM: human ether-à-go-go-related gene (hERG) potassium channel (human)
- EXPERIMENT_NOTES: primary screen, population patch clamp on CHO cells stably expressing hERG; higher = less effect of the substance
About 14,000 (4.5%) of roughly 310,000 compounds showed an effect of 50% or more. Effects have a minus sign here. The list comes from a sample in which strong results are over-represented; it also holds close analogues and randomly drawn compounds.
# number only, unit % dropped from output

Worked set:
MOLECULE	ASSAY_SYSTEM	NUMERIC_RESULT
CC(C)(C)NC(=O)NC(=O)CSc1ccc(S(=O)(=O)N2CCCCC2)cn1	human ether-à-go-go-related gene (hERG) potassium channel (human)	-13.5
COc1ccc(NS(=O)(=O)c2ccc(Oc3ncccn3)cc2)cc1	human ether-à-go-go-related gene (hERG) potassium channel (human)	3.85
O=C(c1ccc2c(=O)n3c(nc2c1)CCCCC3)N1CCCCC1	human ether-à-go-go-related gene (hERG) potassium channel (human)	17.5
CCOc1ccc(C(C(=O)Nc2ccc(F)cc2)N(C(=O)Cn2nnc3ccccc32)C2CC2)cc1 (stereo not drawn)	human ether-à-go-go-related gene (hERG) potassium channel (human)	-50.3
CCC(C)N(C(=O)Cn1nnc2ccccc21)C(C(=O)Nc1ccc(F)cc1)c1cccc(OC)c1 (stereo not drawn)	human ether-à-go-go-related gene (hERG) potassium channel (human)	-18.8

From here, focus on the item given below.
## Input Query hERG current change (%, negative = inhibition) at 10uM on human ether-à-go-go-related gene (hERG) potassium channel (human) for CCc1cccc(C)c1NC(=O)CN(C)Cc1ccccc1F.O=C(O)C(=O)O
## Output -23.8

* * *

- ASSAY_SYSTEM: human ether-à-go-go-related gene (hERG) potassium channel (human, UniProt Q12809);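 further: peak tail current of the secondary pulse compared with the same well before compound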
- Sequence (Q12809 whole entry, looked up): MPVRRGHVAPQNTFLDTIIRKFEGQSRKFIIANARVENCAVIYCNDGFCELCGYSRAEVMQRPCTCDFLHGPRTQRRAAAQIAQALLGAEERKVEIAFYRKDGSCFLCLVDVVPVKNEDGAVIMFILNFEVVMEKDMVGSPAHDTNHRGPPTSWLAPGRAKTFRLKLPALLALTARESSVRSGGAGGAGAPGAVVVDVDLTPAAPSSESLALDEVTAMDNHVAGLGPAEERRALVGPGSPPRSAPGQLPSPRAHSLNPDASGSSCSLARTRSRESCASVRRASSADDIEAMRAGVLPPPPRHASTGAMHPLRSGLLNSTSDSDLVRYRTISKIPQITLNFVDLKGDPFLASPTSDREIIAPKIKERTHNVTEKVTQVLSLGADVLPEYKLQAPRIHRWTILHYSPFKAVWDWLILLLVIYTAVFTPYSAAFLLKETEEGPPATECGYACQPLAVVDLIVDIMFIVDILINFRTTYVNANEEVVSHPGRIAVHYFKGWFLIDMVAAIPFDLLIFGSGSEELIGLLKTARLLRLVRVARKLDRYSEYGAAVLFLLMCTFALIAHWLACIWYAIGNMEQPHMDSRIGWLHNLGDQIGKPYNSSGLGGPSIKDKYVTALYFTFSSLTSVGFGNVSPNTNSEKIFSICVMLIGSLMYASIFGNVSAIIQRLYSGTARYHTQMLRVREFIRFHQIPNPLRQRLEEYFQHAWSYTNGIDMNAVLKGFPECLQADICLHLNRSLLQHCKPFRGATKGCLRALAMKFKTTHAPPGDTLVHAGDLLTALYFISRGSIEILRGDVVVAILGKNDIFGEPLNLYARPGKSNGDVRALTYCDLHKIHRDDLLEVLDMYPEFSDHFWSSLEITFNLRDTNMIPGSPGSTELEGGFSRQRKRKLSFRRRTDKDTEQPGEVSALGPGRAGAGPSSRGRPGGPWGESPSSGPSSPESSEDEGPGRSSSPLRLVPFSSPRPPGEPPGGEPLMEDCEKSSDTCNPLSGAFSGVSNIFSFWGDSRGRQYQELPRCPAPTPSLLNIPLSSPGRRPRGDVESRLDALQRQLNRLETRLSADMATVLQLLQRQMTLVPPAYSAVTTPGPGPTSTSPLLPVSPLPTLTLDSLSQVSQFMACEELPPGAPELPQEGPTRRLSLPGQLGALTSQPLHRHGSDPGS
- EXPERIMENT_NOTES: primary screen, population patch clamp on CHO cells stably expressing hERG; higher = less effect of the substance
The campaign covered roughly 310,000 compounds. About 14,000 (4.5%) showed an effect of 50% or more. Effects have a minus sign here. The entries come from a sample that favours strong results as a whole.
RECORDED_ENDPOINT: hERG current change (%, negative = inhibition) at 10uM (%)
# number only, unit % dropped from output

COMPOUND	NUMERIC_RESULT
CCOC(=O)N1CCC(NC(=O)c2cc(COc3ccc(F)cc3Cl)on2)CC1	-0.672
CCOCC(=O)Nc1ccccc1C(=O)N1CCOCC1	-0.166
CCC(=O)N1CCc2cc(S(=O)(=O)NC(C(=O)NCc3ccccc3)C(C)C)ccc21 (centres unmarked)	13.2
COc1ccc(-c2nc(CN3CCC(C(=O)NC4CC4)CC3)c(C)o2)cc1OC	-12.8

From here, focus on the item given below.
## Input I have this compound here, Cc1ccc(-c2nc3ccccc3c(=O)n2-c2ccc(O)cc2)cc1 , and I need its recorded hERG current change (%, negative = inhibition) at 10uM.
## Output -3.92

* * *

- ASSAY_SYSTEM: human ether-à-go-go-related gene (hERG) potassium channel (human, UniProt Q12809);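 further: peak tail current of the secondary pulse compared with the same well before compound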
- EXPERIMENT_NOTES: primary screen, population patch clamp on CHO cells stably expressing hERG; higher = less effect of the substance
In all, about 310,000 compounds went through this assay and about 14,000 (4.5%) showed an effect of 50% or more. Effects have a minus sign here. The sample holds strong results, similar compounds and a random draw of the others, so the mix is not that of the screen.
Kind request: treat -20% as inclusive, so hERG current change (%, negative = inhibition) at 10uM at -20% or higher is rule met, anything lower is rule not met.

COMPOUND	ASSIGNED_CATEGORY
Cc1ccc2c(c1)c1c(n2CC(O)CNC(CO)(CO)CO)CCCC1 (stereo not drawn)	rule met

Now look at this entry.
## Input Is hERG current change (%, negative = inhibition) at 10uM at least -20%? Consider Cc1ccc2c(c1)c1c(n2CC(O)CNC2CCCCC2)CCCC1.Cl (stereo not drawn)
## Output rule not met

* * *

- ASSAY_SYSTEM: human ether-à-go-go-related gene (hERG) potassium channel (human, UniProt Q12809);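 further: peak tail current of the secondary pulse compared with the same well before compound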
- EXPERIMENT_NOTES: primary screen, population patch clamp on CHO cells stably expressing hERG; higher = less effect of the substance
- Procedure: Briefly, Chinese hamster ovary (CHO) cells stably expressing the hERG channel were dislodged from tissue culture flasks and dispensed into PPC plates. […] During the recording, background leak currents were estimated by a 100 ms step to -80 mV from an initial holding potential of -70 mV and subtracted from the subsequent current measurement. The campaign was conducted in two phases using slight differences in recording protocol. […]
Among all 310,000 compounds or so, about 14,000 (4.5%) showed an effect of 50% or more. The effect is printed as a negative number. The entries come from a sample that favours strong results as a whole.
RECORDED_ENDPOINT: hERG current change (%, negative = inhibition) at 10uM (%)
# number only, unit % dropped from output

## Input I have this compound here, Cl.OC(COc1ccc(Cl)cc1)CN1CCN(c2ccccc2)CC1 (stereo not shown) , and I need its recorded hERG current change (%, negative = inhibition) at 10uM.
## Output -29.7

## Input I have this compound here, C=CC[N+]1(C)CC[C@]23c4c5ccc(O)c4O[C@H]2C(=O)CC[C@@]3(O)[C@H]1C5.[I-] (stereo partly shown) , and I need its recorded hERG current change (%, negative = inhibition) at 10uM.
## Output 17.8

## Input I have this compound here, Cl.N=c1n(CCN2CCCCC2)c2ccccc2n1CC(O)c1cccc(Br)c1 (stereo not shown) , and I need its recorded hERG current change (%, negative = inhibition) at 10uM.
## Output -63.2

* * *

In this section, each of the molecules is paired with its reported hERG current change (%, negative = inhibition) at 10uM.
- ASSAY_SYSTEM: human ether-à-go-go-related gene (hERG) potassium channel (human);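 further: peak tail current of the secondary pulse compared with the same well before compound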
- EXPERIMENT_NOTES: primary screen, population patch clamp on CHO cells stably expressing hERG; higher = less effect of the substance
Out of some 310,000 compounds screened, about 14,000 (4.5%) showed an effect of 50% or more. Effects have a minus sign here. What follows is part of a selection rich in strong results, with near analogues and random picks from the rest.
# number only, unit % dropped from output

Worked set:
SMILES_RECORD	NUMERIC_RESULT
O=C(N/N=C/c1ccc([N+](=O)[O-])o1)c1cc(-c2ccc(-c3ccccc3)cc2)nc2ccccc12	17.7
CCCc1ccc(-c2cc(C(=O)N/N=C/c3ccc([N+](=O)[O-])o3)c3ccccc3n2)cc1	-1.61
O=C(N/N=C/c1ccc([N+](=O)[O-])o1)c1cc(-c2ccncc2)nc2ccccc12	-62.9

From here, focus on the item given below.
## Input I have this molecule here, O=C(NCc1ccc(F)cc1)c1cc(-c2ccncc2)nc2ccccc12 , and I need its recorded hERG current change (%, negative = inhibition) at 10uM.
## Output -64.7

The measured values listed here are drawn from paper PMC4336329.
